Some compounds, each annotated with its measured pEC50.
- System: Macacine alphaherpesvirus 1
- protocol text: microbe, parasite or virus in culture
- Format: functional, organism-based
- measurement setup: Macacine alphaherpesvirus 1, Vero
pEC50: −log10 of the molar value.

| structure notation | pEC50 |
| --- | --- |
| O=c1[nH]c(=O)n([C@H]2C[C@H](O)[C@@H](CO)O2)cc1/C=C/Br | < 3.52 |
| O=c1[nH]c(Nc2ccccc2)nc2c1ncn2CCCCO | < 3.48 |
| O=C(O)P(=O)(O)O | < 3.30 |

---

- protocol text: Cytotoxicity against african green monkey Vero cells after 2 days
- Format: cell-based
- measurement setup: chlorocebus sabaeus
quantity measured: CC50 at 48 h

| compound | result |
| --- | --- |
| O=c1[nH]c(Nc2ccccc2)nc2c1ncn2CCCCO | > 660 µM |
| Nc1nc2c(ncn2COCCO)c(=O)[nH]1 [ACYCLOVIR] | > 890 µM |
| Nc1ccn(C[C@@H](CO)OCP(=O)(O)O)c(=O)n1 [CIDOFOVIR] | > 720 µM |
